- Test system: SF-539 CNS
- PROCEDURE_SUMMARY: NCI tumour cell line growth inhibition, 48 h; in the data active means GI50 below about 0.43 µM; inactive means the rest
Possible outcomes: active, inactive

{"columns": ["COMPOUND", "CLASS_NAME"],
 "data": [
  ["Cc1nc2sc3c(N)ncnc3c2c(C)c1C", "inactive"],
  ["C=C1C(=O)O[C@H]2[C@H]1CC/C(COC(=O)/C=C\\C(=O)NCc1ccc(Cn3c(=O)sn(CCI)c3=O)cc1)=C\\CC[C@@]1(C)O[C@@H]21", "inactive"],
  ["C#CC1(O)C(COP(=O)(O)OCC2OC(n3cc(F)c(=O)[nH]c3=O)CC2O)OC(n2ccc(N)nc2=O)C1O (stereo not given)", "active"],
  ["O=C1NC2(CCCCC2)C(=O)N1CCN(CCCl)CCCl", "inactive"],
  ["C[N+](C)(C)c1cc[c]([Sn]([c]2ccc([N+](C)(C)C)cc2)([c]2ccc([N+](C)(C)C)cc2)[c]2ccc([N+](C)(C)C)cc2)cc1", "inactive"],
  ["O=C1Cc2cc(CCn3cncn3)c(Cl)cc2N1", "inactive"],
  ["O=C(Nc1cc(Cl)ccc1O)c1ccccc1Nc1ccnc(C(F)(F)F)c1", "inactive"],
  ["Nc1ncc(-c2ccc3ncnc(N4CCc5ccc(Cl)cc54)c3c2)cc1C(F)(F)F", "inactive"],
  ["CCCCCCCCCCNCCSS(=O)(=O)O", "inactive"],
  ["O=C(/C=C/c1ccccn1)c1ccc(OCc2nnc(-c3ccc(Cl)cc3)o2)cc1", "inactive"]
]}

Values were extracted from PubChem BioAssay (NCI).
